ASSAY INFO: binders of probe aFGF2 on microarray, primary screen, stem cell growth factor project, biochemical, small-molecule microarray, fluorescence 635/667 (AID 1067);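 also: measures binding of biotinylated aFGF2 protein to printed compounds on slides; z-score merges feature fluorescence and signal-to-noise across triplicate slides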
PROTOCOL CONDITIONS: higher = more signal
composite z-score values by entry
QUANTITY KIND: composite z-score

>>> observed_measurement("CSCC[C@@H]1NC(=O)CC=C[C@@H](C)COC(=O)[C@H](CCSC)NC(=O)CC=C[C@@H](C)COC1=O")
-0.127
>>> observed_measurement("CC(=O)NCCCC[C@@H]1NC(=O)[C@H]2C[C@@H](C(=O)NCCCCCCN(C)C)[C@@H](c3ccc(O)cc3)N2C1=O")
-0.0876
>>> observed_measurement("COCCOC(=O)N1C(=O)[C@@]2(c3cc(C#CCNC(N)=O)ccc31)[C@H](c1ccc(OCCO)cc1)N1[C@H](c3ccccc3)[C@H](c3ccccc3)OC(=O)[C@H]1[C@@H]2C(=O)Nc1nc2ccccc2s1")
-0.0399
>>> observed_measurement("CCCCCCc1nc(C2CC2)c(C)c2c1[Si](C(C)C)(C(C)C)OC2")
-0.167
>>> observed_measurement("CO[C@H]1COC(=O)[C@H](C)NC(=O)CC=C[C@@H](C)[C@H](NS(=O)(=O)c2ccc(C)cc2)COC(=O)CC=C[C@@H]1C")
-0.172
>>> observed_measurement("Cc1ccc(S[C@]2(C(=O)O)CC(=O)N(Cc3cc(C(F)(F)F)cc(C(F)(F)F)c3)[C@@H]2c2ccc(CO)cc2I)cc1")
-0.103
>>> observed_measurement("Cc1cc(C)c(C(O)C2C=CC3C(=O)N(C)C(=O)C3N2N2CCCCC2)c(C)c1 (configuration not stated)")
0.205
>>> observed_measurement("C=CCNC(=O)[C@H]1[C@@H]2C(=O)O[C@@H](c3ccccc3)[C@@H](c3ccccc3)N2[C@@H](c2ccccc2OCCO)[C@]12C(=O)N(C(=O)OCCOC)c1ccc(C#CCNC(N)=O)cc12")
-0.0547
>>> observed_measurement("COCCOC(=O)N1C(=O)[C@@]2(c3cc(C#CCNC(N)=O)ccc31)[C@H](C(=O)N1CCCCCCC1)[C@H]1C(=O)O[C@H](c3ccccc3)[C@H](c3ccccc3)N1[C@@H]2c1ccccc1OCCO")
0.129
>>> observed_measurement("O=C1O[C@@H](c2ccccc2)[C@@H](c2ccccc2)N2[C@@H](c3ccc(O)cc3)[C@]3(C(=O)Nc4ccc(C#CC5(O)CCCCCC5)cc43)[C@@H](C(=O)Nc3nc4ccccc4s3)[C@H]12")
0.0759
>>> observed_measurement("CCOC(=O)C1=CC[C@@H](c2ccc(-c3ccc(OCc4ccccc4)cc3)c(OC)c2)N(S(=O)(=O)c2ccc(C)cc2)[C@H]1c1ccccc1")
0.0188
>>> observed_measurement("Cc1ccc([C@@H]2CC=C(C(=O)O)[C@H](c3ccccc3)N2S(=O)(=O)c2ccc(C)cc2)cc1")
0.358
>>> observed_measurement("COc1cc(CO)cc(I)c1O[C@H]1C=C(C(=O)NCCO)C[C@@H](N(CC2CCCCC2)C(=O)c2cc3ccccc3oc2=O)[C@@H]1O")
-0.0513
>>> observed_measurement("COc1cc([C@@H]2N[C@H](C(=O)O)Cc3c2[nH]c2ccccc32)cc(OC)c1OC")
-0.0806
>>> observed_measurement("C=C(CCCC)/C(=C/C[C@@H](OC(=O)c1ccncc1)c1ccc(CO)o1)c1cnc2ccccc2c1")
0.0263
>>> observed_measurement("CN(C)CCCC[C@@H]1NC(=O)[C@@H]2C[C@H](C(=O)NCCCCCNC(=O)CS)[C@H](c3ccc(O)cc3)N2C1=O")
0.0918
>>> observed_measurement("CN(C)CCCC[C@@H]1NC(=O)[C@@H]2C[C@H](C(=O)O)[C@H](c3ccc(O)cc3)N2C1=O")
-0.128
>>> observed_measurement("COC(=O)C1=C(C)N(Cc2ccccc2)c2c(C(=O)OC)c(C(=O)OC)c(C(=O)OC)c(=O)n2[C@@H]1c1ccccc1")
-0.0181
>>> observed_measurement("CC(C)=C1C(=O)C(c2ccccc2)=C2CN3C(=O)N(CCc4ccccc4)C(=O)[C@]3(Cc3ccccc3)[C@H]21")
-0.0612
>>> observed_measurement("COCCOC(=O)N1C(=O)[C@@]2(c3ccccc31)[C@H](C(=O)N1CCc3cc(OC)c(OC)cc3C1)[C@H]1C(=O)O[C@H](c3ccccc3)[C@H](c3ccccc3)N1[C@@H]2c1ccccc1OCCO")
-0.0009
>>> observed_measurement("O=C1O[C@H](c2ccccc2)[C@H](c2ccccc2)N2[C@H]1[C@@H](C(=O)Nc1nc3ccccc3s1)[C@]1(C(=O)Nc3ccc(C#CC4(O)CCCCCC4)cc31)[C@H]2c1ccc(O)cc1")
-0.0407
>>> observed_measurement("COC(=O)c1ccc(C#CC(NP(=O)(c2ccccc2)c2ccccc2)c2ccccc2)cc1 (configuration not stated)")
-0.108
>>> observed_measurement("COc1ccc(C(=O)Nc2ccc(CN3C(=O)[C@]4(O[C@H](CCn5cc(CCO)nn5)[C@@H]([Si](C)(C)c5ccc(OC)cc5)[C@@H]4C)c4ccccc43)cc2)cc1")
0.0331
>>> observed_measurement("CCCC[C@@H]1C[C@H]1[C@@H](NC(=O)c1cccs1)c1ccc(Cl)cc1")
-0.141
>>> observed_measurement("C=CC[C@]1(C(=O)N2CCCCC2)N=C(c2ccc(OCCCO)cc2)O[C@H]1c1ccccc1N=[N+]=[N-]")
0.256
>>> observed_measurement("COc1ccc(CCN2C(=O)[C@@]3(c4ccc([N+](=O)[O-])cc4)CC(=O)N(CC45CC6CC(CC(C6)C4)C5)[C@@H]3c3ccc(CO)cc32)cc1")
0.0201
>>> observed_measurement("COC(=O)C[C@H]1O[C@]2(C(=O)N(C)c3ccccc32)[C@@H](C)[C@@H]1[Si](C)(C)c1ccc(OC)cc1")
-0.005

----------
ASSAY INFO: basal RPMI8226 viability, no added stimulus, profiling panel, cell-based, calcein-AM fluorescence, 48 h, PK04 Diversity Set (AID 1166);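 also: cells grown under basal conditions without added stimulus; test concentration not given here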
PROTOCOL CONDITIONS: RPMI8226 myeloma viability, higher = more signal
Strictly below 0.08 in z-score: 1 (yes). Otherwise: 0 (no).

>>> label("C[C@H]1NC(=O)[C@@H](C)NC(=O)[C@@]23C(=O)N[C@@H](Cc4ccccc4)C2[C@H](C)[C@@]2(C)O[C@H]2C3/C=C/C/C=C\\CNC1=O (stereo partly specified)")
"1 (yes)"
>>> label("C=CCN1C(=O)[C@@]2(O[C@@H](CCn3cc([C@H](O)c4ccccc4)nn3)[C@H]([Si](C)(C)c3ccc(OC)cc3)[C@H]2C)c2cc(N3CCOC3=O)ccc21")
"1 (yes)"
>>> label("C=CCOC(=O)[C@@H]1[C@H]2C(=O)O[C@H](c3ccccc3)[C@H](c3ccccc3)N2[C@H](c2ccc(OCCOC(=O)[C@H]3C[C@H]4C(=O)N5CCC[C@H]5C(=O)N4[C@H]3c3ccc(O)cc3)cc2)[C@@]12C(=O)Nc1ccccc12")
"1 (yes)"
>>> label("COc1cccc([C@@H]2[C@@H](C)CC[C@H]3C(=O)N(C)[C@@H](C(C)C)C(=O)N23)c1")
"0 (no)"
>>> label("CO[C@@H]1COC(=O)CC=C[C@H](C)COC(=O)[C@H](Cc2ccccc2)NC(=O)CC=C[C@H]1C")
"0 (no)"

----------
ASSAY INFO: E. coli growth modulation, two-sided OD650, primary screen, E. coli filamentation project, strain DRC41, 24 h (AID 1093);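 also: MC1000 strain lacking acrAB efflux and sulA so SOS filamentation is blocked; test concentration not given here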
PROTOCOL CONDITIONS: OD650, 24 h, higher = more signal, called active from +8 up or from −8 down
Outcome label depends on z-score relative to 0.07: at/above gives yes (1), below gives no (0).

>>> label("O=C1C2C=CC(C(O)C#Cc3ccccc3)N(Nc3ccccc3)C2C(=O)N1c1ccccc1 (centres undefined)")
"no (0)"
>>> label("[N-]=[N+]=Nc1ccccc1C[C@@]1(C(=O)N2CCOCC2)N=C(c2ccc(OCCCO)cc2)O[C@@H]1c1ccccc1N=[N+]=[N-]")
"yes (1)"
>>> label("O=C(CS)NCCCCCCNC(=O)[C@@H]1C[C@@H]2C(=O)N[C@@H](Cc3ccccc3)C(=O)N2[C@@H]1c1ccc(O)cc1")
"yes (1)"
>>> label("COC(=O)C1=C(C)N(Cc2ccccc2)c2c(C(=O)OC)c(C(=O)OC)c(C(=O)OC)c(=O)n2[C@@H]1c1ccccc1")
"yes (1)"
>>> label("CCc1cccc(NC(=O)O[C@H]2[C@H](OC(=O)Nc3ccccc3)[C@@H](OC(=O)Nc3ccccc3)[C@@H](OC)O[C@@H]2CO)c1")
"no (0)"
>>> label("C[C@@H]1CC[C@H]2C(=O)N3[C@@H](CC[C@@H](C)[C@@H]3c3cccc(N4CCOCC4)c3)C(=O)N2[C@H]1c1cccc(N2CCOCC2)c1")
"yes (1)"
>>> label("COc1cc(Cc2cc3c(c(CCc4ccccc4)n2)[Si](C(C)C)(C(C)C)OC3)cc(OC)c1OC")
"no (0)"
>>> label("COC(=O)[C@@]1(Cc2ccc(OC)cc2)[C@H]2c3cc(C(=O)N(C)C)n(Cc4ccc(C)c(F)c4F)c3C[C@H]2CN1C(=O)c1ccccc1")
"no (0)"
>>> label("COC(=O)C(CC#Cc1ccc2c(c1)[C@]1(C(=O)N2)[C@H](C(=O)N2CCCCCCC2)[C@H]2C(=O)O[C@H](c3ccccc3)[C@H](c3ccccc3)N2[C@@H]1c1ccc(O)cc1)C(=O)OC")
"yes (1)"
>>> label("C=CC[C@@]12N=C(c3ccc(OCCCO)cc3)O[C@@H]1c1ccccc1CN(Cc1ccccc1)C2=O")
"yes (1)"
>>> label("COCCCNC(=O)[C@@]1(c2ccc([N+](=O)[O-])cc2)CC(=O)N(C2CCCCC2)[C@@H]1c1ccc(CO)cc1")
"yes (1)"
>>> label("COC(=O)[C@@]1(Cc2ccccc2CN=[N+]=[N-])N=C(c2ccc(OCCCO)cc2)O[C@H]1c1ccccc1N=[N+]=[N-]")
"yes (1)"
>>> label("CO[C@@H]1COC(=O)[C@H](C)NC(=O)CC=C[C@@H](C)[C@H](OC)COC(=O)[C@H](C)NC(=O)CC=C[C@H]1C")
"yes (1)"
>>> label("CO[C@H]1COC(=O)CC=C[C@@H](C)COC(=O)[C@@H](C)NC(=O)CC=C[C@@H]1C")
"no (0)"
